test: activity coefficient (dimensionless); of the first substance listed, at infinite dilution; xn = mol fraction of the nth substance listed; conditions: 308.15 K; Liquid; Chromatography; x1 = 0
readoutLabel: activity coefficient
Hey, just send me the number, nothing else.

compound	recordedResult
CCCCCC [hexane] + CCCC[N+]1(C)CCCC1.O=S(=O)([O-])C(F)(F)F	50.6
C#CCCC [1-pentyne] + CCCC[N+]1(C)CCCC1.O=S(=O)([O-])C(F)(F)F	2.66
c1ccccc1 [benzene] + CCCC[N+]1(C)CCCC1.O=S(=O)([O-])C(F)(F)F	1.44
C=CCCCC [hex-1-ene] + CCCC[N+]1(C)CCCC1.O=S(=O)([O-])C(F)(F)F	20.2
C=CCCCCCC [oct-1-ene] + CCCC[N+]1(C)CCCC1.O=S(=O)([O-])C(F)(F)F	38.4

--- query ---
Task item: Give activity coefficient for Cc1ccccc1 [toluene] + CCCC[N+]1(C)CCCC1.O=S(=O)([O-])C(F)(F)F
Reply: 2.19

====

experiment: activity coefficient (dimensionless); of the first substance listed, at infinite dilution; xn = mol fraction of the nth substance listed; conditions: 338.15 K; Liquid; Chromatography; x1 = 0
Kindly note that classification relies on activity coefficient with these boundaries: low value = under 2, medium value = from 2 up to 20, high value = 20 and over

Completed entries (count: 5):
compound	qualitativeLabel
Cc1ccccc1 [toluene] + CCCC[N+]1(C)CCCC1.O=S(=O)([O-])C(F)(F)F	medium value
Cc1ccc(C)cc1 [1,4-dimethylbenzene] + CCCC[N+]1(C)CCCC1.O=S(=O)([O-])C(F)(F)F	medium value
C1CCCC1 [cyclopentane] + CCCC[N+]1(C)CCCC1.O=S(=O)([O-])C(F)(F)F	medium value
CCCCO [butan-1-ol] + CCCC[N+]1(C)CCCC1.O=S(=O)([O-])C(F)(F)F	low value
CO [methanol] + CCCC[N+]1(C)CCCC1.O=S(=O)([O-])C(F)(F)F	low value

Task item: Would you mind sorting C=CCCCC [hex-1-ene] + CCCC[N+]1(C)CCCC1.O=S(=O)([O-])C(F)(F)F into the appropriate category?
Reply: medium value

Task item: Would you mind sorting C#CCCC [1-pentyne] + CCCC[N+]1(C)CCCC1.O=S(=O)([O-])C(F)(F)F into the appropriate category?
Reply: medium value

Task item: Would you mind sorting CCc1ccccc1 [ethylbenzene] + CCCC[N+]1(C)CCCC1.O=S(=O)([O-])C(F)(F)F into the appropriate category?
Reply: medium value

Task item: Would you mind sorting C=CCCC [1-pentene] + CCCC[N+]1(C)CCCC1.O=S(=O)([O-])C(F)(F)F into the appropriate category?
Reply: medium value

Task item: Would you mind sorting Cc1cccc(C)c1 [1,3-dimethylbenzene] + CCCC[N+]1(C)CCCC1.O=S(=O)([O-])C(F)(F)F into the appropriate category?
Reply: medium value

====

This listing pairs compounds with measured activity coefficient.
assay: activity coefficient (dimensionless); of the first substance listed, at infinite dilution; xn = mol fraction of the nth substance listed; conditions: 348.15 K; Liquid; Chromatography; x1 = 0
Hey, just send me the number, nothing else.

compound	activity coefficient
CCc1ccccc1 [ethylbenzene] + CCCC[N+]1(C)CCCC1.O=S(=O)([O-])C(F)(F)F	3.51

Task item: Give activity coefficient for Cc1cccc(C)c1 [1,3-dimethylbenzene] + CCCC[N+]1(C)CCCC1.O=S(=O)([O-])C(F)(F)F
Reply: 3.5

Task item: Give activity coefficient for CCCCCCC [heptane] + CCCC[N+]1(C)CCCC1.O=S(=O)([O-])C(F)(F)F
Reply: 46.7

Task item: Give activity coefficient for C1CCOC1 [tetrahydrofuran] + CCCC[N+]1(C)CCCC1.O=S(=O)([O-])C(F)(F)F
Reply: 1.44

====

experiment: activity coefficient (dimensionless); of the first substance listed, at infinite dilution; xn = mol fraction of the nth substance listed; conditions: 368.15 K; Liquid; Chromatography; x1 = 0
readoutLabel: activity coefficient
Hey, just send me the number, nothing else.

Sample records with activity coefficient:
molecule	recordedResult
C1CCCCC1 [cyclohexane] + CCCC[N+]1(C)CCCC1.O=S(=O)([O-])C(F)(F)F	14.6
CCO [ethanol] + CCCC[N+]1(C)CCCC1.O=S(=O)([O-])C(F)(F)F	0.763

--- query ---
Task item: Give activity coefficient for C1CCCCCC1 [cycloheptane] + CCCC[N+]1(C)CCCC1.O=S(=O)([O-])C(F)(F)F
Reply: 17.9

====

assay: activity coefficient (dimensionless); of the first substance listed, at infinite dilution; xn = mol fraction of the nth substance listed; settings: 358.15 K; Liquid; Chromatography; x1 = 0
readoutLabel: activity coefficient
Hey, just send me the number, nothing else.

Sample records with activity coefficient:
molecule	readoutLabel	recordedResult
C1CCCCC1 [cyclohexane] + CCCC[N+]1(C)CCCC1.O=S(=O)([O-])C(F)(F)F	activity coefficient	15.6
C1CCCCCCC1 [cyclooctane] + CCCC[N+]1(C)CCCC1.O=S(=O)([O-])C(F)(F)F	activity coefficient	23.5
COC(C)(C)C [2-methoxy-2-methylpropane] + CCCC[N+]1(C)CCCC1.O=S(=O)([O-])C(F)(F)F	activity coefficient	5.59

Task item: Give activity coefficient for C#CCCC [1-pentyne] + CCCC[N+]1(C)CCCC1.O=S(=O)([O-])C(F)(F)F
Reply: 3.01

Task item: Give activity coefficient for Cc1ccccc1 [toluene] + CCCC[N+]1(C)CCCC1.O=S(=O)([O-])C(F)(F)F
Reply: 2.32

Task item: Give activity coefficient for Cc1ccccc1C [1,2-dimethylbenzene] + CCCC[N+]1(C)CCCC1.O=S(=O)([O-])C(F)(F)F
Reply: 3.01

Task item: Give activity coefficient for CCCCCCCCC [nonane] + CCCC[N+]1(C)CCCC1.O=S(=O)([O-])C(F)(F)F
Reply: 78.9

Task item: Give activity coefficient for C=CCCCCC [1-heptene] + CCCC[N+]1(C)CCCC1.O=S(=O)([O-])C(F)(F)F
Reply: 21.6

Task item: Give activity coefficient for C=CCCCCCC [oct-1-ene] + CCCC[N+]1(C)CCCC1.O=S(=O)([O-])C(F)(F)F
Reply: 29.8

Task item: Give activity coefficient for CCCCC [pentane] + CCCC[N+]1(C)CCCC1.O=S(=O)([O-])C(F)(F)F
Reply: 26.1

Task item: Give activity coefficient for C#CCCCC [1-hexyne] + CCCC[N+]1(C)CCCC1.O=S(=O)([O-])C(F)(F)F
Reply: 4.09

Task item: Give activity coefficient for Cc1ccc(C)cc1 [1,4-dimethylbenzene] + CCCC[N+]1(C)CCCC1.O=S(=O)([O-])C(F)(F)F
Reply: 3.45

Task item: Give activity coefficient for Cc1cccc(C)c1 [1,3-dimethylbenzene] + CCCC[N+]1(C)CCCC1.O=S(=O)([O-])C(F)(F)F
Reply: 3.51

====

experiment: activity coefficient (dimensionless); of the first substance listed, at infinite dilution; xn = mol fraction of the nth substance listed; details: 328.15 K; Liquid; Chromatography; x1 = 0
readoutLabel: activity coefficient
Hey, just send me the number, nothing else.

Sample records with activity coefficient:
compound	readoutLabel	recordedResult
O [water] + CCCC[N+]1(C)CCCC1.O=S(=O)([O-])C(F)(F)F	activity coefficient	0.83
CCCCO [butan-1-ol] + CCCC[N+]1(C)CCCC1.O=S(=O)([O-])C(F)(F)F	activity coefficient	1.49
CCCCCCC [heptane] + CCCC[N+]1(C)CCCC1.O=S(=O)([O-])C(F)(F)F	activity coefficient	54.2

--- query ---
Task item: Give activity coefficient for CCCCCCCC [octane] + CCCC[N+]1(C)CCCC1.O=S(=O)([O-])C(F)(F)F
Reply: 73.1

====

test: activity coefficient (dimensionless); of the first substance listed, at infinite dilution; xn = mol fraction of the nth substance listed; details: 318.15 K; Liquid; Chromatography; x1 = 0
Mark satisfied only when activity coefficient stays strictly below 3. Values equal to the cut-off are not satisfied.

compound	qualitativeLabel
C=CCCC [1-pentene] + CCCC[N+]1(C)CCCC1.O=S(=O)([O-])C(F)(F)F	not satisfied
C1CCOC1 [tetrahydrofuran] + CCCC[N+]1(C)CCCC1.O=S(=O)([O-])C(F)(F)F	satisfied
CCO [ethanol] + CCCC[N+]1(C)CCCC1.O=S(=O)([O-])C(F)(F)F	satisfied
Cc1ccc(C)cc1 [1,4-dimethylbenzene] + CCCC[N+]1(C)CCCC1.O=S(=O)([O-])C(F)(F)F	not satisfied
C#CCCCCC [1-heptyne] + CCCC[N+]1(C)CCCC1.O=S(=O)([O-])C(F)(F)F	not satisfied

Task item: Hi there! Is activity coefficient for C=CCCCCC [1-heptene] + CCCC[N+]1(C)CCCC1.O=S(=O)([O-])C(F)(F)F below 3, do you know?
Reply: not satisfied

Task item: Hi there! Is activity coefficient for C#CCCC [1-pentyne] + CCCC[N+]1(C)CCCC1.O=S(=O)([O-])C(F)(F)F below 3, do you know?
Reply: satisfied

Task item: Hi there! Is activity coefficient for C1CCCCCCC1 [cyclooctane] + CCCC[N+]1(C)CCCC1.O=S(=O)([O-])C(F)(F)F below 3, do you know?
Reply: not satisfied

Task item: Hi there! Is activity coefficient for COC(C)(C)C [2-methoxy-2-methylpropane] + CCCC[N+]1(C)CCCC1.O=S(=O)([O-])C(F)(F)F below 3, do you know?
Reply: not satisfied

Task item: Hi there! Is activity coefficient for C#CCCCCCC [1-octyne] + CCCC[N+]1(C)CCCC1.O=S(=O)([O-])C(F)(F)F below 3, do you know?
Reply: not satisfied
